- experiment_description: self-splicing fitness, log relative to wild type (ln ratio); higher = more splicing; Tetrahymena group I intron in knt gene, E. coli kanamycin selection, DiMSum; sequences stand for … in CUCUCU…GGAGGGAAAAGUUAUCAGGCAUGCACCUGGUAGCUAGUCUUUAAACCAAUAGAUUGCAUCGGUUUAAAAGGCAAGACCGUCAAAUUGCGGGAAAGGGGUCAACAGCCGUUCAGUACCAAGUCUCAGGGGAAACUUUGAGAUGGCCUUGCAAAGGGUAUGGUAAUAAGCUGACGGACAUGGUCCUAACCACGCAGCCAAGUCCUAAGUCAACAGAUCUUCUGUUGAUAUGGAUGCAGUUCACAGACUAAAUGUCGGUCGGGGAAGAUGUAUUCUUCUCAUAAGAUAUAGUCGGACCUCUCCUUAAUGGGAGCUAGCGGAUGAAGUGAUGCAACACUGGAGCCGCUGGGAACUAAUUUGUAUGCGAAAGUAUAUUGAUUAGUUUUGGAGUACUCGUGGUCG;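 also: selection with 25 µg/mL kanamycin versus none on LB agar overnight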
- condition_description: 30 °C
Let's look at some sequences and their measured self-splicing fitness (ln).
The answer should be written as a number, with no unit following it.

Known results for sequences:
[
  {
    "sequence_input": "AAGAAGCAAUAUUACGUUGA",
    "result_value": -1.76
  },
  {
    "sequence_input": "AUAUAGCAAUAUUACGAUGC",
    "result_value": -2.89
  },
  {
    "sequence_input": "CGGAAGCAAUAUUACGGUGU",
    "result_value": -3.77
  }
]

Would you kindly look at the next entry?
Which self-splicing fitness (ln) is reported for this sequence? "CAGUAGCAAUAUUACGGCAA"
-3.53

----------
- experiment_description: self-splicing fitness, log relative to wild type (ln ratio); higher = more splicing; Tetrahymena group I intron in knt gene, E. coli kanamycin selection, DiMSum; sequences stand for … in CUCUCU…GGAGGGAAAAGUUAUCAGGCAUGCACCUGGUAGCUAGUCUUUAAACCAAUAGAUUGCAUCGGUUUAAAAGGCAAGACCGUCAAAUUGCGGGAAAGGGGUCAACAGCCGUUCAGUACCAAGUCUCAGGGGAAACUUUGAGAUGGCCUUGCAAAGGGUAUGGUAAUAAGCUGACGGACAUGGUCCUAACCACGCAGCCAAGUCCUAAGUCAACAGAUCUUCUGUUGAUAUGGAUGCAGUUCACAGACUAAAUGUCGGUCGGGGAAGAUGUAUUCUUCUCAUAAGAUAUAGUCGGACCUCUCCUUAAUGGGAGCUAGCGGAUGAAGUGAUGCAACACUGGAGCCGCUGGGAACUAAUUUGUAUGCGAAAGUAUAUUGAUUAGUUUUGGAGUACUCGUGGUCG
- condition_description: 37 °C
Recorded self-splicing fitness (ln) determines the group label, using lower (below -2), middle (-2 to below -1), upper (-1 or more)

Worked examples follow.
[
  {
    "sequence_input": "GCUUAGCAAUAUUACGAGGU",
    "label_class": "lower"
  },
  {
    "sequence_input": "CUGUAGCAAUAUUACGCGUG",
    "label_class": "upper"
  }
]

Into which category would you place "ACGCAGCAAUAUUACGUUCU" ?
upper

Into which category would you place "GUCAAGCAAUAUUACGCAGC" ?
lower

Into which category would you place "ACUGAGCAAUAUUACGGCUU" ?
lower

Into which category would you place "AGAAAGCAAUAUUACGUAGC" ?
lower

Into which category would you place "ACGGAGCAAUAUUACGUCCC" ?
upper

Data provenance: the supplement of paper PMC7877785
